Biological target: Protease (Human immunodeficiency virus 1)
Test: Inhibition of HIV1 recombinant protease at 50 nM
Numbered stars: 1 amine (or outer) side, 2 acyl side, 3 side chain; on linkers, the order of the positions; unused ones are H or OH. Square brackets hold non-standard residues; d marks the D form. Peptide text beside a SMILES is read from it. * marks the point of attachment. X1 = O=C([C@@H](O)[C@H](Cc1ccccc1)N[*:1])[*:2]; Thz(5,5-Me2) = CC1(C)SCN[C@@H]1C(=O)O; Phg = N[C@H](C(=O)O)c1ccccc1; Tle = CC(C)(C)[C@H](N)C(=O)O; Dap = NC[C@H](N)C(=O)O; NHCH2tBu = CC(C)(C)CN*
I'd appreciate it if you could supply inhibition values for the items below.
Give bare numbers, in %.

CCCC(=O)N[C@H](C(=O)N[C@H](C(=O)N[C@@H](Cc1ccccc1)[C@H](O)C(=O)N1CSC(C)(C)[C@H]1C(=O)NCC(C)(C)C)C(C)(C)C)c1ccccc1 = 99
COC(=O)N[C@H](C(=O)N[C@H](C(=O)N[C@@H](Cc1ccccc1)[C@H](O)C(=O)N1CSC(C)(C)[C@H]1C(=O)NCC(C)(C)C)C(C)(C)C)c1ccccc1 = 99
CC(C)(C)CNC(=O)[C@H]1N(C(=O)[C@@H](O)[C@H](Cc2ccccc2)NC(=O)[C@@H](NC(=O)[C@@H](NCc2ccccc2)c2ccccc2)C(C)(C)C)CSC1(C)C = 92
CCN(CC)[C@H](C(=O)N[C@H](C(=O)N[C@@H](Cc1ccccc1)[C@H](O)C(=O)N1CSC(C)(C)[C@H]1C(=O)NCC(C)(C)C)C(C)(C)C)c1ccccc1 = 98

Now, please, on to the next compound.
Problem: Note down inhibition recorded for CC(C)(C)CNC(=O)[C@H]1N(C(=O)[C@@H](O)[C@H](Cc2ccccc2)NC(=O)[C@@H](NC(=O)[C@@H](NC(=O)[C@@H](N)CN)c2ccccc2)C(C)(C)C)CSC1(C)C (H-[Dap][Phg][Tle][X1][Thz(5,5-Me2)]-NHCH2tBu)
Result: 72

====

I'd appreciate it if you could supply inhibition values for the items below.
Target: Protease (Human immunodeficiency virus 1)
Assay: Inhibition of HIV1 recombinant protease at 50 nM
Numbered stars: 1 amine (or outer) side, 2 acyl side, 3 side chain; on linkers, the order of the positions; unused ones are H or OH. Square brackets hold non-standard residues; d marks the D form. Peptide text beside a SMILES is read from it. * marks the point of attachment. X1 = O=C([C@@H](O)[C@H](Cc1ccccc1)N[*:1])[*:2]; Thz(5,5-Me2) = CC1(C)SCN[C@@H]1C(=O)O; Phg = N[C@H](C(=O)O)c1ccccc1; Tle = CC(C)(C)[C@H](N)C(=O)O; NHCH2tBu = CC(C)(C)CN*
Give bare numbers, in %.

Look over these answered cases.
COC(=O)N[C@H](C(=O)N[C@H](C(=O)N[C@@H](Cc1ccccc1)[C@H](O)C(=O)N1CSC(C)(C)[C@H]1C(=O)NCC(C)(C)O)C(C)(C)C)c1ccccc1 = 99
COC(=O)N[C@H](C(=O)N[C@H](C(=O)N[C@@H](Cc1ccccc1)[C@H](O)C(=O)N1CSC(C)(C)[C@H]1C(=O)NNC(C)(C)C)C(C)(C)C)c1ccccc1 = 99
CC(C)(C)CNC(=O)[C@H]1N(C(=O)[C@@H](O)[C@H](Cc2ccccc2)NC(=O)[C@@H](NC(=O)[C@@H](NC(=O)CN)c2ccccc2)C(C)(C)C)CSC1(C)C (H-G[Phg][Tle][X1][Thz(5,5-Me2)]-NHCH2tBu) = 94

# per-item lookup of inhibition; items listed below
1. CC(C)(C)CNC(=O)[C@H]1N(C(=O)[C@@H](O)[C@H](Cc2ccccc2)NC(=O)[C@@H](NC(=O)[C@@H](NC(=O)CCCN)c2ccccc2)C(C)(C)C)CSC1(C)C
2. CN(C)[C@H](C(=O)N[C@H](C(=O)N[C@@H](Cc1ccccc1)[C@H](O)C(=O)N1CSC(C)(C)[C@H]1C(=O)NCC(C)(C)C)C(C)(C)C)c1ccccc1
3. CCN[C@H](C(=O)N[C@H](C(=O)N[C@@H](Cc1ccccc1)[C@H](O)C(=O)N1CSC(C)(C)[C@H]1C(=O)NCC(C)(C)C)C(C)(C)C)c1ccccc1

Result:
[99, 99, 99]
